test system: Saccharomyces cerevisiae; assay: protein stability index of tFT-peptide fusion (C-terminal peptide) (PSI (0-1 scale)); higher = more stable (slower turnover); details: genetic background: wild type; temperature: 30 C;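 further: PSI is a weighted mean of sequencing reads over stability bins, variants kept only with over 10 reads, mCherry proximal and sfGFP distal, peptide attached via GGGS linker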
ATTRIBUTE MEASURED: protein stability index
Give the figure only, with no unit attached.

The reported value for WNSQGVFILAKC in terms of protein stability index is 0.372

The reported value for RVGALLAVTCPA in terms of protein stability index is 0.302

The reported value for VFVRDFLVSIVV in terms of protein stability index is 0.164

The reported value for ESCWVSRVGVCR in terms of protein stability index is 0.608

The reported value for PLFLRPLSVPVL in terms of protein stability index is 0.328

The reported value for HCLLQDVPPTLH in terms of protein stability index is 0.702

The reported value for RSWLCFIVFGLF in terms of protein stability index is 0.234

The reported value for HLYCYNILLVSG in terms of protein stability index is 0.254

The reported value for SLSCYSFFVLAL in terms of protein stability index is 0.401

The reported value for DFHLPWPVALVW in terms of protein stability index is 0.208
